system: human IL-17A (Homo sapiens, UniProt Q16552)
Sequence (Q16552 24-155): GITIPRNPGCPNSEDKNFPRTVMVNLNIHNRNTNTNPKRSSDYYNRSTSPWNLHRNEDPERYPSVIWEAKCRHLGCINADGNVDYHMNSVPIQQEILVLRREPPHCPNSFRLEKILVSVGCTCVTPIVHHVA
protocol summary: IL-17A enzyme-linked immunosorbent assay (competitive ELISA, IL-17A/IL-17R binding)
measured parameter: pIC50
In textbook form, pIC50 equals minus log to base ten of the concentration in mol/L.

Known pIC50 results, listed for orientation:
{"molecule": "Cn1nccc1C(=O)N[C@H](C(=O)Nc1cnc(N2CCOCC2)c(F)c1)C(C1CCC1)C1(C)CC1 (stereo partly drawn)", "measured parameter": "pIC50", "experimental value": 7.14}
{"molecule": "Cc1conc1C(=O)N[C@H](C(=O)Nc1ccc(-c2c(C)n[nH]c2C)nc1)C(C1CC1)C1CC1", "measured parameter": "pIC50", "experimental value": 5.56}

Below: the item to evaluate.
Name the reported pIC50 value associated with the molecule CC(C)N1CCN(c2ccc(NC(=O)[C@@H](NC(=O)c3ccnn3C)C(C3CCC3)C3(C)CC3)cn2)C(C)C1 (stereo partly drawn)
4.86
